Biological target: T1, serum resistance-associated protein (SRA) from Trypanosoma brucei rhodesiense, recombinant SRA (SEQ ID NO: … (Trypanosoma brucei rhodesiense, UniProt O96637 31-274))
T1 construct: also called SRA protein
T1 sequence: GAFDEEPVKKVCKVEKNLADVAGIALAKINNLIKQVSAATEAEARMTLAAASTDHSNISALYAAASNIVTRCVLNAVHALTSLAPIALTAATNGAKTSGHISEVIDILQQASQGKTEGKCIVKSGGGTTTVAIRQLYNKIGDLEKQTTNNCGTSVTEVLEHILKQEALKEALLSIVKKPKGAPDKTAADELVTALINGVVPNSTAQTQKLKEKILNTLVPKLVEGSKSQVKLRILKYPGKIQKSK
Assay: SPR, mAb captured, pH 4.5, 25C; competitor biotin-mutant apoL1 peptide
reported_property: % Blocking, Mutant apoL1 peptide
Quote the value and follow it with the unit of measurement.

[[record]]
binder = "H1H10026P (antibody, V domains shown, Fully human antibody with human IgG1 Fc (prefix H1H)) VH: QVQLVESGGGVVQPGRSLRLSCEASGFTFSIYGMHWVRQAPGKGLEWVAVISYDGTNRYYADSVKGRFTISRDNSKNTLYLQMNSLRAEDTAVYYCAKVNIWNFLFDYWGQGTLVTVSS VL: EIVLTQSPGTLSLSPGERATLSCRASQSVSGNYLAWYQQKPGQAPRLLIYGPSSRATGIPDRFSGSGSGTDFTLTISRLEPEDFAVYYCQQYGTSLTFGGGTKVEIK"
reported = "-2%"


Shifting focus to the binder that follows.
Request: Which % Blocking, Mutant apoL1 peptide value is on record for H1H10069P (antibody, V domains shown, Fully human antibody with human IgG1 Fc (prefix H1H)) VH: QVQLQESGPGLVKPSETLSLTCSVSGGSFTNYYWSWIRQPPGKGLEWIGSVFYSGTTNYNPSLQSRVTLSIETSKNQFSLRLNSVTAADTAVYYCARDQGAAALDYWGQGTLVTVSS VL: DIQMTQSPSTLSASVGDRLTITCRASQSINNWLAWYQQKPGKAPKLLIYKASNLESGVPSRFSGSGSGTEFTLTISNLQPDDFATYYCQQYNSFFLTFGGGTKVEIK ?
Response: 5%
